- targetOfAssay: NMDA receptor GRIN1/GRIN2B (NR2B) expressed in HEK293 cells (Homo sapiens, UniProt Q13224)
- Construct: host or cells: HEK293
- Sequence (Q13224 27-1484, other chains not shown): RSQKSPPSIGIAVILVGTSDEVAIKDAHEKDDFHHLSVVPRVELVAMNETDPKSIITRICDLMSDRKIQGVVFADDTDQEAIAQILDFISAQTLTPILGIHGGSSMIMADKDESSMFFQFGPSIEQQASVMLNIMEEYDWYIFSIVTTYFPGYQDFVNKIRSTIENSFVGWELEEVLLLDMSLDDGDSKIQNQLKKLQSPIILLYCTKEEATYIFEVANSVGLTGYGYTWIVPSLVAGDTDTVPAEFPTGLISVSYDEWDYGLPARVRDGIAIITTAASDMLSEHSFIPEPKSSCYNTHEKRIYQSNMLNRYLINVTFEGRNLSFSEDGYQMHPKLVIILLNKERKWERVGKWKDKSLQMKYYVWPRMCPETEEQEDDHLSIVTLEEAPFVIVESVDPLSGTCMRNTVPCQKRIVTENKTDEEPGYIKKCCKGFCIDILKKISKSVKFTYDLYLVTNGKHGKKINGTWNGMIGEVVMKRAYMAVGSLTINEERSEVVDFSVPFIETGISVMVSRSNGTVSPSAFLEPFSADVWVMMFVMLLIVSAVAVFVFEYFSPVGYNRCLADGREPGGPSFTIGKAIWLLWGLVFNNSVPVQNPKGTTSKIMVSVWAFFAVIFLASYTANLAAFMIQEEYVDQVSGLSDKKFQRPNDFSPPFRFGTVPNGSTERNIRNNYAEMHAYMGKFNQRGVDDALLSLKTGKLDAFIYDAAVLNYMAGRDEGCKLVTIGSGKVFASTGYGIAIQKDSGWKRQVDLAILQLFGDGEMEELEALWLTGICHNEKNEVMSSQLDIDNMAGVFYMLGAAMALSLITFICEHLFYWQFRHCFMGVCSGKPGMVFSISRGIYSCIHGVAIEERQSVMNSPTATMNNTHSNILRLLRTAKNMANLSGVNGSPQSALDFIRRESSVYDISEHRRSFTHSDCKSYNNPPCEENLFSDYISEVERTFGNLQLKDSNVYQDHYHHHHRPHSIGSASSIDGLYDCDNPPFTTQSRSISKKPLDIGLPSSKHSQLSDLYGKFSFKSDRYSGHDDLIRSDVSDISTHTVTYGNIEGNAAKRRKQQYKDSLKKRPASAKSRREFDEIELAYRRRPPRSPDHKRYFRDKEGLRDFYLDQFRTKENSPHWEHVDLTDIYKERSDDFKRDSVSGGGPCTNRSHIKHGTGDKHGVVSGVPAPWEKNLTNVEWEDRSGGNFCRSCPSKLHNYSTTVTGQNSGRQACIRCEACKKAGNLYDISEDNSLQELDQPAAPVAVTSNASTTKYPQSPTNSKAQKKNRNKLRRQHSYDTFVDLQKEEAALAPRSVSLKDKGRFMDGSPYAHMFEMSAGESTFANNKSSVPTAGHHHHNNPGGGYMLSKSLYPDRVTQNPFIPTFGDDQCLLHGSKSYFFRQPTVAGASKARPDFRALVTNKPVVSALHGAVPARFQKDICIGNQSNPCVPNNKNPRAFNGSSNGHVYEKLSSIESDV
- runDescription: Reversal of Ro 25-6981-mediated suppression of the Ca2+ response (fluo-8 fluorescence, FDSS) in HEK293 cells expressing GRIN1 and GRIN2B
- Assay type: cell-based
- assayContext: % reversal=100*(R−Rneg)/(Rpos−Rneg) of Ro 25-6981 suppression of co-agonist (glutamate/glycine) Ca2+ response, 10 min pre-incubation, compound concentration not given
experimentalEndpoint: Response Recovered (%)

| compound | experimentalEndpoint | unitLabel | endpointResult |
| --- | --- | --- | --- |
| O=C(Cn1cnc2scc(-c3ccc(C(F)(F)F)cc3)c2c1=O)N1CCCC1C(F)(F)F (centres unmarked) [Example 18] | Response Recovered (%) | % | 8 |
| O=C(On1cnc2scc(-c3ccc(F)c(Cl)c3)c2c1=O)N1CCC(F)C1 (centres unmarked) [Example 88] | Response Recovered (%) | % | 83 |
| O=C(Cn1cnc2scc(-c3cncnc3)c2c1=O)N1CCCC1 [Example 40] | Response Recovered (%) | % | 1 |
| CN1CCN(C(=O)Cn2cnc3scc(-c4ccc(Cl)cc4)c3c2=O)CC1 [Example 3] | Response Recovered (%) | % | 3 |

a. O=C(Cn1cnc2scc(-c3cc(C(F)(F)F)ccc3F)c2c1=O)N1CCCC1 [Example 54]
b. O=C(Cn1cnc2scc(-c3ccc(Cl)cc3)c2c1=O)NC1CCC1 [Example 9]
// max by Response Recovered (%) over [ a , b ] Label of pick, please.
a
(a: 20%, b: 3%)

Taken from patent US11541057B2.
